Assay: NCI Yeast Anticancer Drug Screen. Data for the mec2-1 strain (AID 157)
Conditions: S. cerevisiae mec2-1 strain, at 50.0 µM (retest, dose inferred, filed as 5.0), hits give high values
This is part of a sample that, as a whole, favours compounds with a hit. Of some 79,000 tested, about 15% had one in any assay.
Value Kind: growth inhibition (%)
The reply should contain only the number, in %.

q: Which growth inhibition is reported for this compound? "Nc1cc(F)c2c(c1F)C(=O)c1cc(F)ccc1-2"
a: 70

q: Now give it for CSC(=S)OC1CC(n2cnc3c(NC(=O)c4ccccc4)ncnc32)OC1CO[Si](C)(C)C(C)(C)C (stereo not drawn) too.
a: 2

q: Please do the same for "Oc1ccc(-c2ccccc2)cc1Cl" as well.
a: 99

q: Lookup CCC(C)Sc1nc2c([nH]1)c(=S)n(C)c(=O)n2C (stereo not drawn)
a: 52

q: Now the compound "CN(C)CCN(C)N=Nc1c(-c2cccs2)n[nH]c1C(F)(F)F"
a: 100

q: Now the compound "CC(C)C1=C(O)c2ccccc2C(=O)C1=O"
a: 94

q: Repeat for the following compound: O=C1C2C3C=CC(C3)C2C(=O)C2C3C=CC(C3)C12 (stereo not drawn)
a: 98

q: Similarly, "CCCCCCCCCCCCNC(=O)c1cc[n+](Cc2ccc(Cl)c(Cl)c2)cc1" ?
a: 97
